Cited source for all entries: ChEMBL document CHEMBL6114968

# protocol.details: AUC(0 to t) in mouse at 10 mg/kg, po
# Assay type: ADME, organism-based
# test.settings: in vivo
recorded.endpoint: AUC(0-t)

>>> result("C=C(C)C(=O)Nc1ccc(-c2c(-c3ccc(S4(=O)=NCCCCC4)cc3)c3c(N)ncnc3n2C)c(F)c1 (stereo unspecified)")
"3650 ng·h/mL"

###

# protocol.details: MRT(0 to t) in mouse at 1 mg/kg, iv
# Assay type: ADME, organism-based
# test.settings: in vivo
recorded.endpoint: MRT last (min)

>>> result("C=C(C)C(=O)Nc1ccc(-c2c(-c3ccc(S4(=O)=NCCCCC4)cc3)c3c(N)ncnc3n2C)c(F)c1 (stereo unspecified)")
28.8

###

# protocol.details: Antiproliferative activity against FGFR2 amplified human KATO III stomach cancer cell line measured after 72 hrs by CCK-8 assay
# Assay type: functional, cell-based
recorded.endpoint: IC50 (nM)

>>> result("CCC(=O)Nc1ccc(-c2c(-c3ccc(S4(=O)=NCCCCC4)cc3)c3c(N)ncnc3n2C)c(F)c1 (stereo not drawn)")
2210
>>> result("CCN1C(=O)N(c2c(F)c(OC)cc(OC)c2F)Cc2cnc3[nH]c(CN4CCOCC4)cc3c21")
1.8
>>> result("C=C(C)C(=O)Nc1ccc(-c2c(-c3ccc(S4(=O)=NCCCCC4)cc3)c3c(N)ncnc3n2C)c(F)c1 (stereo not drawn)")
12.6

###

The following compounds are listed with their measured pIC50 values.
# Test system: BaF3
# protocol.details: Antiproliferative activity against mouse BaF3 cells expressing FGFR2 incubated for 72 hrs by CCK-8 assay
# Assay type: functional, cell-based
# test.settings: BaF3, 72 h
pIC50: −log10 of the molar value.
recorded.endpoint: pIC50

>>> result("C=CC(=O)Nc1ccc(-c2c(-c3ccc(S4(=O)=NCCCCC45CC5)cc3)c3c(N)ncnc3n2C)cc1 (centres undefined)")
8.44
>>> result("C=CC(=O)Nc1ccc(-c2c(-c3ccc(S(=N)(=O)CC(C)(C)C)cc3)c3c(N)ncnc3n2C)cc1 (centres undefined)")
8.54
>>> result("C=C(C)C(=O)Nc1ccc(-c2c(-c3ccc(S4(=O)=NCCCCC4)cc3)c3c(N)ncnc3n2C)cc1F (centres undefined)")
6.97
>>> result("C=C(C)C(=O)Nc1ccc(-c2c(-c3ccc(S4(=O)=NCCCCC4)cc3)c3c(N)ncnc3n2C)cc1 (centres undefined)")
7.84

###

# protocol.details: AUC(0 to t) in mouse at 1 mg/kg, iv
# Format: ADME, organism-based
# test.settings: in vivo
recorded.endpoint: AUC(0-t) (ng·h/mL)

>>> result("C=C(C)C(=O)Nc1ccc(-c2c(-c3ccc(S4(=O)=NCCCCC4)cc3)c3c(N)ncnc3n2C)c(F)c1 (stereo unspecified)")
1270

###

# Test system: BaF3
# protocol.details: Antiproliferative activity against mouse BaF3 cells expressing FGFR2 incubated for 72 hrs by CCK-8 assay
# Format: functional, cell-based
# test.settings: BaF3, 72 h
pIC50: −log10 of the molar value.
# pIC50 listing for each entry below
recorded.endpoint: pIC50

>>> result("C=CC(=O)Nc1ccc(-c2c(-c3ccc(S(=O)(CC)=NC)cc3)c3c(N)ncnc3n2C)cc1 (centres undefined)")
6.99
>>> result("C=CC(=O)Nc1ccc(-c2c(-c3ccc(S(=N)(=O)CC)cc3)c3c(N)ncnc3n2C)cc1 (centres undefined)")
6.50
>>> result("C=CC(=O)Nc1ccc(-c2c(-c3ccc(S(=N)(=O)CCC)cc3)c3c(N)ncnc3n2C)cc1 (centres undefined)")
7.15
>>> result("C=CC(=O)Nc1ccc(-c2c(-c3ccc(S(C)(=O)=Nc4ccccc4)cc3)c3c(N)ncnc3n2C)cc1 (centres undefined)")
7.00
